# Test system: Bacillus subtilis DB104 (SP-AmyQ fusion secretion)
# Test protocol: AmyQ secretion efficiency, weighted average sort bin (1 = best secretion, 10 = worst) (bin number (weighted average, 1-10)); higher = lower secretion efficiency
Assay endpoint: AmyQ secretion efficiency
Output: the number by itself.

In the examples that follow, each entry is paired with its recorded AmyQ secretion efficiency.
| Sequence chain | AmyQ secretion efficiency |
| --- | --- |
| MKNMSCKLVVSVTLFFSFLTIGPLAHAQND | 1.22 |
| MGLGKKLSVAVAASFMSLSISLPGVQFAEG | 4.64 |
| MRSYIKVLTMCFLGLILFVKRRKRRALADNS | 7.48 |
| MKNLTKTSLLLAGLCTAAQMVFVTHASAEES | 3.46 |
| MTKLKMLSMLTVMIASLFIFSSQALMVQY | 5.71 |
| MKKKLAAGLTASAIVGTTLVVTPAEEATI | 6.94 |

Quote AmyQ secretion efficiency with test system Bacillus subtilis DB104 (SP-AmyQ fusion secretion) for MKKKVKIAGVLTVAAAAMTAKMYATAKGN
6.8

Quote AmyQ secretion efficiency with test system Bacillus subtilis DB104 (SP-AmyQ fusion secretion) for MKKLLAAGIIGLLTVSIASPSFWAEK
7.9

Quote AmyQ secretion efficiency with test system Bacillus subtilis DB104 (SP-AmyQ fusion secretion) for MGKRGGSGSSLFISSAVLLSILLPSGQAHAQSA
1.07

Quote AmyQ secretion efficiency with test system Bacillus subtilis DB104 (SP-AmyQ fusion secretion) for MKLWMRKTLVVLFTIVTFGLVSPPAAEMADKP
2.41

Quote AmyQ secretion efficiency with test system Bacillus subtilis DB104 (SP-AmyQ fusion secretion) for MPYLKRVRRRRVTGLFMSLFAVTATASAQTG
2.37

Quote AmyQ secretion efficiency with test system Bacillus subtilis DB104 (SP-AmyQ fusion secretion) for MAIIIAIIAAVIVIAALITFNVRNLSPG
7.04

Quote AmyQ secretion efficiency with test system Bacillus subtilis DB104 (SP-AmyQ fusion secretion) for MKKKQVMLALTAAAGLGLTALVFFHSAPAAKAAPL
2.39

Quote AmyQ secretion efficiency with test system Bacillus subtilis DB104 (SP-AmyQ fusion secretion) for MTKKAWFLPLVCVLLISGWLAPAASISAQTT
2.33
